- TEST_METHOD_NOTES: BSK_LPS_PGE2: BioMAP Diversity Plus: LPS Assay for Prostaglandin E2 (PGE2) Biomarker Activity (AID 2283082)
- DETAILS: primary human HUVEC with PBMC; actives raise or lower the signal
- Procedure: BSK_LPS is a cell-based, multiplexed-readout assay that uses umbilical vein endothelium and peripheral blood mononuclear cells, a human vascular primary cell co-culture, with measurements taken at 24 hours after chemical dosing in a 96-well plate.BSK_LPS_PGE2 is an assay component measured in the BSK_LPS assay. It measures PGE2 antibody related to regulation of gene expression using ELISA technology.Data from the assay component BSK_LPS_PGE2 was analyzed into 1 assay endpoint. […]
Calls of active or inactive are those of the source. How the source made its calls: active means hit-call score of the fitted dose curve at least 0.9, where 1 is the maximum; inactive means score below 0.9.
Entry note: the call must match one of active, inactive

Enquiry: Record request — test call for Cc1ccc(C)c(O)c1C
Return: active

Enquiry: Record request — test call for CC1(C)NC(=O)NC1=O
Return: inactive

Enquiry: // param item: CC1=C(/C=C/C(C)=C/C=C/C(C)=C/CO)C(C)(C)CCC1 ; yields the recorded call
Return: active

Enquiry: Short answer needed: outcome of this test for Cc1oc(-c2ccccc2)nc1CCOc1cccc2c1ccn2CCC(=O)O ?
Return: active

Enquiry: Hello, I am checking results. What call was entered for Cc1nc(-c2ccc3c(c2)CCN(CCC2CCC(NC(=O)/C=C/c4ccc(F)cc4)CC2)CC3)no1 (stereo not drawn) ?
Return: active

Enquiry: Give the logged outcome of this assay for the following compound: CCCCN(CCCC)CCCC
Return: inactive

Enquiry: Check the results log: what was the call for Cc1ccc(Cl)cc1 ?
Return: inactive

Enquiry: What is the recorded call for this compound in the test? CCCCCC(=O)O
Return: inactive

Enquiry: Recorded test outcome, item CCCCCCCCCCCCCCCCCC(=O)O
Return: inactive

Enquiry: Which outcome was entered for the compound COc1cc(-c2nc(NC(=O)c3cc4cc(C)cc(C)c4n3CC(=O)O)sc2CCC2CCCCC2)c(OC)cc1Cl in this test?
Return: active

Enquiry: So what was the verdict on CCNc1cccc(C)c1 in this test?
Return: inactive

Enquiry: Give the logged outcome of this assay for the following compound: c1cc(-c2ccncc2)ccn1
Return: inactive

Enquiry: Recorded test call requested for Cc1cccc(Nc2cc(Cl)nc(SCC(=O)O)n2)c1C
Return: inactive

###

- Read-out: Monokine induced gamma interferon (MIG), CXCL9 (gene 4283)
- TEST_METHOD_NOTES: BSK_hDFCGF_MIG: BioMAP Diversity Plus: hDFCGF Assay for Monokine induced gamma interferon (MIG) Biomarker Activity (AID 2283063)
- DETAILS: primary human foreskin fibroblasts; actives raise or lower the signal
- Description: BSK_hDFCGF is a cell-based, multiplexed-readout assay that uses foreskin fibroblast, a human skin primary cell, with measurements taken at 24 hours after chemical dosing in a 96-well plate.BSK_hDFCGF_MIG is an assay component measured in the BSK_hDFCGF assay. It measures MIG antibody related to regulation of gene expression using ELISA technology.Data from the assay component BSK_hDFCGF_MIG was analyzed into 1 assay endpoint. […]
Calls of active or inactive are those of the source. The calls were made as follows: active = hit-call score of the fitted dose curve at least 0.9, where 1 is the maximum; inactive = score below 0.9.
Allowed answers: active, inactive

Enquiry: For this compound, state the assay outcome: CCOC(=O)C(C)(C)Oc1ccc(Cl)cc1
Return: inactive

Enquiry: Could you kindly confirm the outcome this assay logged for Nc1ccccc1N ?
Return: inactive

Enquiry: Can you look up the reported call for CCCCCCCCCCO for me?
Return: inactive

Enquiry: Outcome logged for CC(=O)OCCOCCOCCOC(C)=O in this assay:
Return: inactive

Enquiry: For this compound, state the assay outcome: Oc1ccc2c(c1)OC[C@@H](N1CCC(O)(c3ccc(F)cc3)CC1)[C@H]2O
Return: inactive

Enquiry: What did this assay record as the result for CCNc1cccc(C)c1 ?
Return: inactive

Enquiry: Could you kindly confirm the outcome this assay logged for Cc1nc(-c2ccc3c(c2)CCN(CCC2CCC(NC(=O)/C=C/c4ccc(F)cc4)CC2)CC3)no1 (centres undefined) ?
Return: inactive

Enquiry: Any idea what this test logged for CC(=O)Oc1ccccc1C(=O)O ?
Return: inactive

Enquiry: # outcome recorded in this test, key = Cc1cc(=O)[nH]c(=S)[nH]1
Return: inactive

Enquiry: Would you mind telling me which call this test gave CC(C)(C)c1cc(O)c(C(C)(C)C)cc1O ?
Return: active

Enquiry: Given Nc1ccc(S(=O)(=O)c2ccc(N)cc2)cc1 , state the outcome it received in this test.
Return: inactive

Enquiry: Hey, what did the test say about O=c1[nH]cc(F)c(=O)[nH]1 ?
Return: inactive

Enquiry: How was Cc1cccc(C)c1O classified in this test?
Return: inactive

Enquiry: Please indicate how the test categorized Cc1cccc([N+](=O)[O-])c1C .
Return: inactive

Enquiry: What did the test return for Cc1ccc(C)c(C)c1 ?
Return: inactive

Enquiry: Recorded test call requested for COCCOC[C@H](CC1(C(=O)NC2CCC(C(=O)O)CC2)CCCC1)C(=O)Oc1ccc2c(c1)CCC2 (some centres undefined)
Return: inactive

Enquiry: Look up the recorded call for CCCCCCCCCCC in this test.
Return: inactive

Enquiry: Record request — test call for OC[C@@H](O)[C@@H](O)[C@H](O)[C@H](O)CO
Return: inactive

Enquiry: Hello, I am checking results. What call was entered for CCCCC(CC)COC(=O)CC(C(=O)OCC(CC)CCCC)S(=O)(=O)O (centres undefined) ?
Return: active

Enquiry: Recorded call for NCC1(Cc2noc(=O)[nH]2)CCCCC1 ?
Return: inactive

Enquiry: Hi team, can someone confirm the assay call for NCCO ?
Return: inactive

Enquiry: Can you look up the reported call for CCCCN(CCCC)CCCC for me?
Return: inactive

Enquiry: GET /call?item= CCCCCCCCCCCCCCCC returns the recorded outcome of this test.
Return: inactive

Enquiry: # outcome recorded in this test, key = CCCc1cc(=O)[nH]c(=S)[nH]1
Return: inactive
